- study.system: hMC4-R (Homo sapiens (Human), UniProt P32245)
- Sequence (P32245 whole entry): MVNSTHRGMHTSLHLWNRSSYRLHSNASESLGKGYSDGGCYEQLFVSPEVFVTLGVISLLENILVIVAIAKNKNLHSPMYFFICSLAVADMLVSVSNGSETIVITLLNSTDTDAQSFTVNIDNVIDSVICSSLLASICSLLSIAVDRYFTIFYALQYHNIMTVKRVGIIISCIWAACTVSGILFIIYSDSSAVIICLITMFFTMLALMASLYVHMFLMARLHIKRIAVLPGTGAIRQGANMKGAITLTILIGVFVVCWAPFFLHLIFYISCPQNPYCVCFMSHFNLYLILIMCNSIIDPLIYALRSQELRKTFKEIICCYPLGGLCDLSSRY
- protocol.text: High and low density hMC4-R functional assay (cAMP, HEK293-T-REx-MC4-R cells)
- Assay type: cell-based
- run.conditions: 0.1 ng/mL Doxycycline (low density hMC4-R system); NDP-α-MSH = 100%; read-out: Intrinsic Activity (%)
Positions of bridges follow the written chain, without caps; N, C: chain ends. Non-standard residues stand in square brackets, D forms with d. Residues, ends and D or L forms follow the SMILES beside them. dPhe(4-CN) = N#Cc1ccc(C[C@@H](N)C(=O)O)cc1; Orn = NCCC[C@H](N)C(=O)O
The label 1 is reserved for Emax strictly under 20%; -1 covers values equal to or above it.

As a guide, the following entries are already answered.
CC(=O)N[C@@H](CCCNC(=N)N)C(=O)N[C@H]1CCC(=O)NCCC[C@@H](C(N)=O)NC(=O)[C@H](Cc2c[nH]c3ccccc23)NC(=O)[C@H](CCCNC(=N)N)NC(=O)[C@@H](Cc2ccc(F)cc2)NC(=O)[C@H](CCN)NC1=O    -1
CC(=O)N[C@@H](CCCNC(=N)N)C(=O)N[C@H]1CCC(=O)NCCC[C@@H](C(N)=O)NC(=O)[C@H](Cc2c[nH]c3ccccc23)NC(=O)[C@H](CCCNC(=N)N)NC(=O)[C@@H](Cc2ccccc2Cl)NC(=O)[C@H](CN)NC1=O    -1
CC(=O)N[C@@H](CCCNC(=N)N)C(=O)N[C@H]1CCC(=O)NCCC[C@@H](C(N)=O)NC(=O)[C@H](Cc2c[nH]c3ccccc23)NC(=O)[C@H](CCCNC(=N)N)NC(=O)[C@@H](Cc2cccc([N+](=O)[O-])c2)NC(=O)[C@H](CCN)NC1=O    1
CC(=O)N[C@@H](CCCNC(=N)N)C(=O)N[C@H]1CCC(=O)NCCC[C@@H](C(N)=O)NC(=O)[C@H](Cc2c[nH]c3ccccc23)NC(=O)[C@H](CCCNC(=N)N)NC(=O)[C@@H](Cc2ccc(C#N)cc2)NC(=O)[C@H](C(C)C)NC1=O    1
CC(=O)N[C@H](CCCNC(=N)N)C(=O)N[C@H]1CCCNC(=O)CC[C@@H](C(N)=O)NC(=O)[C@H](Cc2c[nH]c3ccccc23)NC(=O)[C@H](CCCNC(=N)N)NC(=O)[C@@H](Cc2ccccc2Cl)NC(=O)[C@H](Cc2c[nH]cn2)NC1=O    -1
CC(=O)N[C@@H](CCCNC(=N)N)C(=O)N[C@H]1CCC(=O)NCCC[C@@H](C(N)=O)NC(=O)[C@H](Cc2c[nH]c3ccccc23)NC(=O)[C@H](CCCNC(=N)N)NC(=O)[C@@H](Cc2ccc(C#N)cc2)NC(=O)[C@H](CO)NC1=O    1

Enquiry: Item CC(=O)N[C@@H](CCCNC(=N)N)C(=O)N[C@H]1CCC(=O)NCCC[C@@H](C(N)=O)NC(=O)[C@H](Cc2c[nH]c3ccccc23)NC(=O)[C@H](CCCNC(=N)N)NC(=O)[C@@H](Cc2cccc(Cl)c2)NC(=O)[C@H](CCC(N)=O)NC1=O : Emax beneath 20%, strictly?
Return: -1

Enquiry: Item CC(=O)N[C@@H](CCCNC(=N)N)C(=O)N[C@H]1CCC(=O)NCCC[C@@H](C(N)=O)NC(=O)[C@H](Cc2c[nH]c3ccccc23)NC(=O)[C@H](CCCNC(=N)N)NC(=O)[C@@H](Cc2ccc(C#N)cc2)NC(=O)[C@H](C)NC1=O [Example 41] (Ac-REA[dPhe(4-CN)]RW[Orn]-NH2; lactam 2-7) : Emax beneath 20%, strictly?
Return: 1
